# experimental-target: D614G Spike (SARS-CoV-2, UniProt P0DTC2 16-1213)
pKd: −log10 of the molar value.
assay-metric: pKd

S1-RBD-R3-T1-F5 (Ab2-7) (scFv, V domains shown) VH: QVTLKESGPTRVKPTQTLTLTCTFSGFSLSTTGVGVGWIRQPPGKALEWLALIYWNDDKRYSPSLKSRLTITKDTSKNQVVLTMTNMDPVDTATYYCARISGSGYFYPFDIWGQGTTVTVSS VL: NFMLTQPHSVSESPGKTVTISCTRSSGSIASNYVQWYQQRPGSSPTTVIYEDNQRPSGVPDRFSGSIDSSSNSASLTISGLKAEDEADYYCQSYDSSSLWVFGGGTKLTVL	11.00
Ab_17 (scFv, V domains shown) VH: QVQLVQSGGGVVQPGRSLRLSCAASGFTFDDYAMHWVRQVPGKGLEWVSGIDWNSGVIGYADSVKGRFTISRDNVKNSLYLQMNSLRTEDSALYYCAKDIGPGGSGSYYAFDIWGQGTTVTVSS VL: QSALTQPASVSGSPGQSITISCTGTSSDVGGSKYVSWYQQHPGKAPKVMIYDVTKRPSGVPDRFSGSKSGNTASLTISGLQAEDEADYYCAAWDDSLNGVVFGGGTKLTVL	11.17
Ab_14 (scFv, V domains shown) VH: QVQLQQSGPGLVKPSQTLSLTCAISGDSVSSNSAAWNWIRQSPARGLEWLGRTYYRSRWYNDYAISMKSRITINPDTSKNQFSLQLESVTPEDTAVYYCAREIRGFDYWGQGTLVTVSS VL: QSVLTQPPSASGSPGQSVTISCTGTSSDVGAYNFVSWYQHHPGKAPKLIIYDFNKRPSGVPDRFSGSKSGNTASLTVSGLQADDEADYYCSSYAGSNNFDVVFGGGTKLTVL	11.09
